I'd be grateful if you could share measured β2 Int Act for these entries.
Test Target: Adrenergic β2 (Homo sapiens, UniProt P07550)
Construct: Adherent H292 cells were removed from tissue culture flasks; endogenous in cells; host or cells: H292 cells
Sequence (P07550 whole entry): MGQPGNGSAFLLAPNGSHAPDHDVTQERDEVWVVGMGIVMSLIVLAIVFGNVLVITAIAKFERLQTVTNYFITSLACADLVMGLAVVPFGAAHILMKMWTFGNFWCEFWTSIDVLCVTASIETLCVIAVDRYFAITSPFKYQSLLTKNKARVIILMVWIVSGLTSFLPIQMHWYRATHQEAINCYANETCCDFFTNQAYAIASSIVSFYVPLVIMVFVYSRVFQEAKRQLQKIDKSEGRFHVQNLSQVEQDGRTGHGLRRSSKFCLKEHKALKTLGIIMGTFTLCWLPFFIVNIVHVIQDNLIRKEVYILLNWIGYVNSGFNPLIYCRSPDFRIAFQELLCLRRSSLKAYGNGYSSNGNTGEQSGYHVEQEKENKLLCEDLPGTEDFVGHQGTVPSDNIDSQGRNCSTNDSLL
Measurement Notes: Adrenergic β2 mediated cAMP production in H292 cells
Assay type: cell-based
Condition Summary: Intrinsic Activity as a fraction relative to the maximum activity determined for formoterol
Structures can show the parent of a compound that is named as a salt.
Numbers only.

Reference set (5 entries):
Compound: O=C(CCNCCc1cccc(F)c1)N(CCNCCc1ccc(O)c2[nH]c(=O)sc12)C1CCCCCC1 [Example 36, bis-trifluoroacetic acid salt]
Test Target: Adrenergic β2 (Homo sapiens, UniProt P07550)
β2 Int Act: 0.84

Compound: C[C@H](CNCCC(=O)N(CCNCCc1ccc(O)c2[nH]c(=O)sc12)C1CCCC1)c1ccccc1 [Example 31, bis-trifluoroacetic acid salt]
Test Target: Adrenergic β2 (Homo sapiens, UniProt P07550)
β2 Int Act: 0.92

Compound: CC(C)(C)CN(CCNCCc1ccc(O)c2[nH]c(=O)sc12)C(=O)CCNCCc1ccccc1 [Example 6, bis-trifluoroacetic acid salt]
Test Target: Adrenergic β2 (Homo sapiens, UniProt P07550)
β2 Int Act: 0.89

Compound: O=C(CCNCCc1cccc(F)c1)N(CCNCCc1ccc(O)c2[nH]c(=O)sc12)CC12CC3CC(CC(C3)C1)C2 [Example 60, bis-trifluoroacetic acid salt]
Test Target: Adrenergic β2 (Homo sapiens, UniProt P07550)
β2 Int Act: 0.76

Compound: O=C(CCNCCc1ccccc1)N(CCNCCc1ccc(O)c2[nH]c(=O)sc12)C1CCCCCC1 [Example 23, bis-trifluoroacetic acid salt]
Test Target: Adrenergic β2 (Homo sapiens, UniProt P07550)
β2 Int Act: 0.85

Report β2 Int Act for every entry below.
1. O=C(CCNCCc1cccc(Cl)c1)N(CCNCCc1ccc(O)c2[nH]c(=O)sc12)C1CCCCC1 [Example 12, bis-trifluoroacetic acid salt]
2. CC(C)(C)CN(CCNCCc1ccc(O)c2[nH]c(=O)sc12)C(=O)CCNCCc1ccc(Cl)c(Cl)c1 [Example 9, bis-trifluoroacetic acid salt]
3. O=C(CCNCCc1ccc(F)cc1F)N(CCNCCc1ccc(O)c2[nH]c(=O)sc12)C1CCCCCC1 [Example 55, bis-trifluoroacetic acid salt]

[0.87, 0.65, 0.81]
